- System tested: T1, Recombinant purified HER2 receptor composed of the ectodomain of HER2 fused to the Fc of human IgG (human, UniProt P04626 23-652, limits assumed)
- T1 construct: extracellular domain; Provided by Dr. Che Law, Xcyte Therapeutics; amine-coupled to the Biacore chip (3500 RU); also called immobilized HER2; p185; not shown: Fc of human IgG
- Test description: Biacore competition, AHNP preinjected 0-90 µM, then 1 nM rhumAb 4D5 (competitor) on immobilized HER2-Fc; initial rate of antibody binding
Positions of bridges follow the written chain, without caps; N, C: chain ends. No end group written: not given here.
Readout type: IC50 (µM)
Quick reminder: number only, in µM, skip the unit.

[in] Given the entry FCDGFYACYMDV-NH2 (disulfide 2-8, Designed from the CDR-H3 loop of rhumAb 4D5; also called anti-HER2 peptide) [AHNP (anti-HER2/neu peptide mimetic), peptide 1, FCDGFYACYMDV-NH2] , report its measured IC50.
[out] 3.4
